# Tested on: UT-SCC-28
# measurement-protocol: maximal % inhibition of viability relative to DMSO; higher = stronger effect
# conditions: culture condition: embedded in Myogel + collagen I; treatment time: 3 days
experimental-readout: maximal % inhibition of viability (%)
Answers are plain numbers, in %.

Answered examples (4):
[[record]]
compound = "Cn1cnc2c(F)c(Nc3ccc(Br)cc3F)c(C(=O)NOCCO)cc21 [Binimetinib]"
experimental_readout = "maximal % inhibition of viability"
numeric_value = 12.5

[[record]]
compound = "Cc1c(CN2CCN(C(=O)[C@H](C)O)CC2)sc2c(N3CCOCC3)nc(-c3cnc(N)nc3)nc12 [Apitolisib]"
experimental_readout = "maximal % inhibition of viability"
numeric_value = 76.8

[[record]]
compound = "COc1ccc(-c2cc3c(C)nc(N)nc3n([C@H]3CC[C@H](OCCO)CC3)c2=O)cn1"
experimental_readout = "maximal % inhibition of viability"
numeric_value = 65.3

[[record]]
compound = "O=C(NC[C@H](O)CO)c1ccncc1Nc1ccc(I)cc1F [Pimasertib]"
experimental_readout = "maximal % inhibition of viability"
numeric_value = 51


For every record below, what is its maximal % inhibition of viability?
1. Cn1cnc2c(F)c(Nc3ccc(Br)cc3Cl)c(C(=O)NOCCO)cc21 [Selumetinib]
2. COc1ncc(-c2ccc3nccc(-c4ccnnc4)c3c2)cc1NS(=O)(=O)c1ccc(F)cc1F [Omipalisib]
3. CO[C@H]1C[C@@H]2CC[C@@H](C)[C@@](O)(O2)C(=O)C(=O)N2CCCC[C@H]2C(=O)O[C@H]([C@H](C)C[C@@H]2CC[C@@H](OP(C)(C)=O)[C@H](OC)C2)CC(=O)[C@H](C)/C=C(\C)[C@@H](O)[C@@H](OC)C(=O)[C@H](C)C[C@H](C)/C=C/C=C/C=C/1C [Ridaforolimus]

output:
1. 39.8
2. 83
3. 31.5

###

# Tested on: UT-SCC-44
# measurement-protocol: relative IC50 (midpoint of the fitted curve; maximal inhibition may be below 50%); higher = less potent
# conditions: culture condition: embedded in Matrigel; treatment time: 3 days
experimental-readout: relative IC50 (nM)
One number for each entry, in nM.

As a guide, the following entries are already answered.
[[record]]
molecule = "CC(=O)Nc1cccc(-n2c(=O)n(C3CC3)c(=O)c3c(Nc4ccc(I)cc4F)n(C)c(=O)c(C)c32)c1 [Trametinib]"
experimental_readout = "relative IC50"
numeric_value = 1.55

[[record]]
molecule = "CO[C@H]1C[C@@H]2CC[C@@H](C)[C@@](O)(O2)C(=O)C(=O)N2CCCC[C@H]2C(=O)O[C@H]([C@H](C)C[C@@H]2CC[C@@H](OP(C)(C)=O)[C@H](OC)C2)CC(=O)[C@H](C)/C=C(\\C)[C@@H](O)[C@@H](OC)C(=O)[C@H](C)C[C@H](C)/C=C/C=C/C=C/1C [Ridaforolimus]"
experimental_readout = "relative IC50"
numeric_value = 0.909

[[record]]
molecule = "Cn1cnc2c(F)c(Nc3ccc(Br)cc3F)c(C(=O)NOCCO)cc21 [Binimetinib]"
experimental_readout = "relative IC50"
numeric_value = 19.6

[[record]]
molecule = "Cc1c(CN2CCN(C(=O)[C@H](C)O)CC2)sc2c(N3CCOCC3)nc(-c3cnc(N)nc3)nc12 [Apitolisib]"
experimental_readout = "relative IC50"
numeric_value = 279


Quick request: relative IC50 for each listed item, please.
1. Cn1c(=O)c(F)c(Nc2ccc(I)cc2F)c2c(=O)n(C[C@@H](O)CO)cnc21 [TAK-733]
2. COc1cc(F)c(F)c(Nc2ccc(I)cc2F)c1NS(=O)(=O)C1(C[C@H](O)CO)CC1 [Refametinib]
3. COc1ccc(-c2cc3c(C)nc(N)nc3n([C@H]3CC[C@H](OCCO)CC3)c2=O)cn1

output:
1. 3.37
2. 56.2
3. 78.9

Hey, quick one: what's relative IC50 for each of these?
1. C=CC(=O)Nc1cc2c(Nc3ccc(F)c(Cl)c3)ncnc2cc1OCCCN1CCOCC1 [Canertinib]
2. Cn1cnc2c(F)c(Nc3ccc(Br)cc3Cl)c(C(=O)NOCCO)cc21 [Selumetinib]

output:
1. 3360
2. 95.2

###

# System: UT-SCC-81
# measurement-protocol: drug sensitivity score (DSS); higher = more sensitive; extreme values may be limits of the assay
# conditions: culture condition: on top of Myogel; treatment time: 3 days
Please respond with reported drug sensitivity score for every item in the list.

[[record]]
molecule = "Cn1cnc2c(F)c(Nc3ccc(Br)cc3F)c(C(=O)NOCCO)cc21"
experimental_readout = "drug sensitivity score"
result = "3.7 DSS"


Could you report drug sensitivity score for every entry in the following list?
1. Cn1c(=O)n(-c2ccc(C(C)(C)C#N)cc2)c2c3cc(-c4cnc5ccccc5c4)ccc3ncc21
2. CC(=O)Nc1cccc(-n2c(=O)n(C3CC3)c(=O)c3c(Nc4ccc(I)cc4F)n(C)c(=O)c(C)c32)c1
3. Cn1cnc2c(F)c(Nc3ccc(Br)cc3Cl)c(C(=O)NOCCO)cc21

output:
0 DSS
4.77 DSS
9.93 DSS

For every listed record, write down its drug sensitivity score.
1. C#Cc1cccc(Nc2ncnc3cc(OCCOC)c(OCCOC)cc23)c1
2. COc1ccc(-c2cc3c(C)nc(N)nc3n([C@H]3CC[C@H](OCCO)CC3)c2=O)cn1
3. O=C(NC[C@H](O)CO)c1ccncc1Nc1ccc(I)cc1F
4. CO[C@H]1C[C@@H]2CC[C@@H](C)[C@@](O)(O2)C(=O)C(=O)N2CCCC[C@H]2C(=O)O[C@H]([C@H](C)C[C@@H]2CC[C@@H](OC(=O)C(C)(CO)CO)[C@H](OC)C2)CC(=O)[C@H](C)/C=C(\C)[C@@H](O)[C@@H](OC)C(=O)[C@H](C)C[C@H](C)/C=C/C=C/C=C/1C
5. Cn1c(=O)c(F)c(Nc2ccc(I)cc2F)c2c(=O)n(C[C@@H](O)CO)cnc21
6. COc1cc2ncnc(Nc3ccc(F)c(Cl)c3)c2cc1OCCCN1CCOCC1
7. CO[C@H]1C[C@@H]2CC[C@@H](C)[C@@](O)(O2)C(=O)C(=O)N2CCCC[C@H]2C(=O)O[C@H]([C@H](C)C[C@@H]2CC[C@@H](OCCO)[C@H](OC)C2)CC(=O)[C@H](C)/C=C(\C)[C@@H](O)[C@@H](OC)C(=O)[C@H](C)C[C@H](C)/C=C/C=C/C=C/1C
8. CN(C)C/C=C/C(=O)Nc1cc2c(Nc3ccc(F)c(Cl)c3)ncnc2cc1O[C@H]1CCOC1

output:
1. 0 DSS
2. 13.6 DSS
3. 9.87 DSS
4. 14.7 DSS
5. 2.63 DSS
6. 1 DSS
7. 7.07 DSS
8. 1.6 DSS

input: Fill blank: measured drug sensitivity score of the compound C=CC(=O)Nc1cc2c(Nc3ccc(F)c(Cl)c3)ncnc2cc1OCCCN1CCOCC1 is ____.
output: 8.9 DSS

###

# System: UT-SCC-42B
# measurement-protocol: maximal % inhibition of viability relative to DMSO; higher = stronger effect
# conditions: culture condition: plastic 2D (no matrix); treatment time: 3 days
Task for the reader: assign each of the following compounds its reported maximal % inhibition of viability.

Some solved entries appear below for comparison.
[[record]]
molecule = "Cc1c(CN2CCN(C(=O)[C@H](C)O)CC2)sc2c(N3CCOCC3)nc(-c3cnc(N)nc3)nc12"
result = "64.5%"

[[record]]
molecule = "CO[C@H]1C[C@@H]2CC[C@@H](C)[C@@](O)(O2)C(=O)C(=O)N2CCCC[C@H]2C(=O)O[C@H]([C@H](C)C[C@@H]2CC[C@@H](OP(C)(C)=O)[C@H](OC)C2)CC(=O)[C@H](C)/C=C(\\C)[C@@H](O)[C@@H](OC)C(=O)[C@H](C)C[C@H](C)/C=C/C=C/C=C/1C"
result = "14.5%"

[[record]]
molecule = "Cn1c(=O)n(-c2ccc(C(C)(C)C#N)cc2)c2c3cc(-c4cnc5ccccc5c4)ccc3ncc21"
result = "1.67%"

[[record]]
molecule = "COc1ncc(-c2ccc3nccc(-c4ccnnc4)c3c2)cc1NS(=O)(=O)c1ccc(F)cc1F"
result = "86.7%"

[[record]]
molecule = "COc1ccc(-c2cc3c(C)nc(N)nc3n([C@H]3CC[C@H](OCCO)CC3)c2=O)cn1"
result = "21.6%"


Turning now to a further compound:
input: Request the reported maximal % inhibition of viability associated with Cn1cnc2c(F)c(Nc3ccc(Br)cc3F)c(C(=O)NOCCO)cc21
output: 31.3%

###

# Test system: UT-SCC-81
# measurement-protocol: maximal % inhibition of viability relative to DMSO; higher = stronger effect
# conditions: culture condition: on top of Myogel; treatment time: 3 days
Label MET when maximal % inhibition of viability is strictly below 70%; at or above that, label NOT MET.

Solved cases below.
[[record]]
molecule = "COc1ccc(-c2cc3c(C)nc(N)nc3n([C@H]3CC[C@H](OCCO)CC3)c2=O)cn1"
assigned_class = "NOT MET"

[[record]]
molecule = "CC(=O)Nc1cccc(-n2c(=O)n(C3CC3)c(=O)c3c(Nc4ccc(I)cc4F)n(C)c(=O)c(C)c32)c1"
assigned_class = "MET"

[[record]]
molecule = "C=CC(=O)Nc1cc2c(Nc3ccc(F)c(Cl)c3)ncnc2cc1OCCCN1CCOCC1"
assigned_class = "NOT MET"

[[record]]
molecule = "CO[C@H]1C[C@@H]2CC[C@@H](C)[C@@](O)(O2)C(=O)C(=O)N2CCCC[C@H]2C(=O)O[C@H]([C@H](C)C[C@@H]2CC[C@@H](OC(=O)C(C)(CO)CO)[C@H](OC)C2)CC(=O)[C@H](C)/C=C(\\C)[C@@H](O)[C@@H](OC)C(=O)[C@H](C)C[C@H](C)/C=C/C=C/C=C/1C"
assigned_class = "MET"


Let's switch to this molecule now.
input: Is maximal % inhibition of viability of CO[C@H]1C[C@@H]2CC[C@@H](C)[C@@](O)(O2)C(=O)C(=O)N2CCCC[C@H]2C(=O)O[C@H]([C@H](C)C[C@@H]2CC[C@@H](O)[C@H](OC)C2)CC(=O)[C@H](C)/C=C(\C)[C@@H](O)[C@@H](OC)C(=O)[C@H](C)C[C@H](C)/C=C/C=C/C=C/1C strictly below 70%?
output: NOT MET

Cited source for all entries: the supplement of paper PMC7017272
